TARGET: IRAK4 (Homo sapiens)
Construct: endogenous in cells
TEST PROTOCOL: ALE THP1 HTRF (Advanced Lipoxidation End Product THP1 Homogeneous Time Resolved Fluorescence)
CONDITION CONTEXT: THP1 cells
READOUT KIND: log10(EC50) (log10 of the value in nM)
Lab note - EC50 converted to log10 from values in nM.

Below are worked cases with known answers.
- MOLECULE: "N#Cc1cnc2c(cnn2-c2cc(NC3CCCC3)c(C(=O)N[C@H]3CC[C@H](CCN4CCN(c5ccc6c(c5)C(=O)N(C5CCC(=O)NC5=O)C6=O)CC4)CC3)cn2)c1 (some centres unmarked) [P-61]"
  TARGET: "IRAK4 (Homo sapiens)"
  READOUT KIND: "log10(EC50)"
  DATA VALUE: 2.00
- MOLECULE: "N#Cc1cnc2c(cnn2-c2cc(NC3CCCC3)c(-c3cn([C@H]4CC[C@H](CN5CCC(C(=O)Nc6ccc(C7CCC(=O)NC7=O)cc6)CC5)CC4)nn3)cn2)c1 (some centres unmarked) [P-47]"
  TARGET: "IRAK4 (Homo sapiens)"
  READOUT KIND: "log10(EC50)"
  DATA VALUE: 2.04
- MOLECULE: "COc1cc(C2CCC(=O)NC2=O)ccc1N1CCN(CC[C@H]2CC[C@H](NC(=O)c3cnc(-n4ncc5cc(C#N)c(N)nc54)cc3N[C@H](C)C#N)CC2)C[C@H]1C (some centres unmarked) [P-167]"
  TARGET: "IRAK4 (Homo sapiens)"
  READOUT KIND: "log10(EC50)"
  DATA VALUE: 0.30
- MOLECULE: "N#Cc1cnc2c(cnn2-c2cc(NC3CCCC3)c(C(=O)NC3CCC(CN4CC5(CCN(c6ccc(C7CCC(=O)NC7=O)cc6)CC5)C4)CC3)cn2)c1 (centres unmarked) [P-39]"
  TARGET: "IRAK4 (Homo sapiens)"
  READOUT KIND: "log10(EC50)"
  DATA VALUE: 2.30

Give log10(EC50) for N#Cc1cnc2c(cnn2-c2cc(NC3CCCC3)c(C(=O)N[C@H]3CC[C@H](CN4CCN(c5ccc6c(c5)C(=O)N(C5CCC(=O)NC5=O)C6=O)CC4)CC3)cn2)c1 (some centres unmarked) [P-18]
1.57

Give log10(EC50) for C[C@H](C#N)Nc1cc(-n2ncc3cc(C#N)cnc32)ncc1C(=O)N[C@H]1CC[C@H](CCN2CCN(c3ccc(C4(C)CCC(=O)NC4=O)cc3)CC2)CC1 (some centres unmarked) [P-136]
0.78

Give log10(EC50) for N#Cc1cnc2c(cnn2-c2cc(NC3CCCC3)c(C(=O)N[C@H]3CC[C@H](CN4CCN(c5ccc6c(c5)C(=O)N(C5CCC(=O)NC5=O)C6)CC4)CC3)cn2)c1 (some centres unmarked) [P-17]
1.11

Give log10(EC50) for CCNc1cc(Nc2ccc3ncc(F)cc3n2)ncc1C(=O)N[C@H]1CC[C@H](CCN2CCN(c3ccc(C4CCC(=O)NC4=O)cc3)CC2)CC1 (some centres unmarked) [P-138]
3.11

Give log10(EC50) for CN(CC1CCN(c2ccc(C3CCC(=O)NC3=O)cc2)CC1)[C@H]1CC[C@H](NC(=O)c2cnc(-n3ncc4cc(C#N)cnc43)cc2NC2CC2)CC1 (some centres unmarked) [P-103]
1.46

Give log10(EC50) for N#Cc1cnc2c(cnn2-c2cc(NC3CCCC3)c(-n3cc([C@H]4CC[C@H](CCN5CCN(c6ccc(C7CCC(=O)NC7=O)cc6)CC5)CC4)nn3)cn2)c1 (some centres unmarked) [P-87]
1.41

Give log10(EC50) for N#Cc1cnc2c(cnn2-c2cc(NC3CCCC3)c(-c3cn([C@H]4CC[C@H](CN5CCC(CNc6ccc(C7CCC(=O)NC7=O)cc6)CC5)CC4)nn3)cn2)c1 (some centres unmarked) [P-44]
2.24

Give log10(EC50) for C[C@H](C#N)Nc1cc(-n2ncc3cc(C#N)cnc32)ncc1C(=O)N[C@H]1CC[C@H](CCN2CC3CCC(C2)N3c2ccc(C3CCC(=O)NC3=O)cc2)CC1 (some centres unmarked) [P-164]
2.13

Give log10(EC50) for C[C@H](C#N)Nc1cc(-c2cnc3cc(C#N)cnn23)ncc1C(=O)N[C@H]1CC[C@H](CCN2CCC(c3ccc(C4CCC(=O)NC4=O)cc3)CC2)CC1 (some centres unmarked) [P-148]
1.20

Give log10(EC50) for C[C@H](C#N)Nc1cc(-n2ncc3cc(C#N)cnc32)ncc1C(=O)N[C@H]1CC[C@H](CCN2CCN(c3ccc(C4CCC(=O)NC4=O)cc3)[C@H](C)C2)CC1 (some centres unmarked) [P-150]
0.85

Give log10(EC50) for N#CCNc1cc(-n2ncc3cc(C#N)cnc32)ncc1C(=O)NC1CCC(CCN2CCN(c3ccc(C4CCC(=O)NC4=O)cc3)CC2)CC1 (centres unmarked) [P-89]
1.36

Give log10(EC50) for N#Cc1cnc2c(cnn2-c2cc(NCCC(F)(F)F)c(C(=O)N[C@H]3CC[C@H](CCN4CCN(c5ccc(C6CCC(=O)NC6=O)cc5)CC4)CC3)cn2)c1 (some centres unmarked) [P-118]
1.53

* * *

Item-by-item account of ALE THP1 HTRF YMIN
TARGET: IRAK4 (Homo sapiens, UniProt Q9NWZ3)
Construct: endogenous in cells; host or cells: THP-1 cells
Sequence (Q9NWZ3 whole entry): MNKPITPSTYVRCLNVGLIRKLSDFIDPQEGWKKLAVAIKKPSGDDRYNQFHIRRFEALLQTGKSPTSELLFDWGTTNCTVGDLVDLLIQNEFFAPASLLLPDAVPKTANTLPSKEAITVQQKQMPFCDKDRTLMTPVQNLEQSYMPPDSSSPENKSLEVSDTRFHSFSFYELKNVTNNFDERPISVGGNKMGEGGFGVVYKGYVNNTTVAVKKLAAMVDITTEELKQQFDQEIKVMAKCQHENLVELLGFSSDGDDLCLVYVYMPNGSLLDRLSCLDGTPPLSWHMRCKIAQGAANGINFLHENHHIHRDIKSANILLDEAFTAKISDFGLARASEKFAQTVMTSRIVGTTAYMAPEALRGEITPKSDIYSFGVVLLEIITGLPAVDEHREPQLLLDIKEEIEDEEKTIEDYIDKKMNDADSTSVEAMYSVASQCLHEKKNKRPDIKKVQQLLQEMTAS
TEST PROTOCOL: ALE THP1 HTRF (Advanced Lipoxidation End Product THP1 Homogeneous Time Resolved Fluorescence)
Assay type: cell-based
CONDITION CONTEXT: THP1 cells
I only need the number, in %, no unit after it.

Below are worked cases with known answers.
- MOLECULE: "N#Cc1cnc2c(cnn2-c2cc(NC3CC3)c(C(=O)N[C@H]3CC[C@H](CCN4CCC(c5ccc(C6(F)CCC(=O)NC6=O)cc5)CC4)CC3)cn2)c1 (single isomer, unassigned) [P-125]"
  DATA VALUE: 9.8
- MOLECULE: "N#Cc1cnc2c(cnn2-c2cc(NC3CCCC3)c(-c3cn([C@H]4CC[C@H](CN5CCC(C(=O)Nc6ccc(C7CCC(=O)NC7=O)cc6)CC5)CC4)nn3)cn2)c1 (some centres unmarked)"
  DATA VALUE: 14.1
- MOLECULE: "COc1cc(N2C[C@H](C)N(CC[C@H]3CC[C@H](NC(=O)c4cnc(-n5ncc6cc(C#N)cnc65)cc4N[C@H](C)C#N)CC3)[C@@H](C)C2)ccc1C1CCC(=O)NC1=O (some centres unmarked)"
  DATA VALUE: 4.5
- MOLECULE: "N#Cc1cnn2c(-c3cc(NC4CCCC4)c(C(=O)NC4CCC(CCN5CCN(c6ccc(C7CCC(=O)NC7=O)cc6)CC5)CC4)cn3)ccc2c1 (centres unmarked)"
  DATA VALUE: 11.4

Give ALE THP1 HTRF YMIN for CC(C)Nc1cc(-n2ncc3cc(C#N)cnc32)ncc1C(=O)N[C@H]1CC[C@H](CN2CCN(c3ccc4c(c3)C(=O)N(C3CCC(=O)NC3=O)C4)CC2)CC1 (some centres unmarked)
31.8

* * *

TARGET: IRAK4 (Homo sapiens)
Construct: endogenous in cells; host or cells: THP-1 cells
TEST PROTOCOL: LVL THP1 HTRF (THP1 Homogeneous Time Resolved Fluorescence)
Format: cell-based
CONDITION CONTEXT: THP1 cells, 18 h incubation with compound, read-out: LVL THP1 HTRF EC50
READOUT KIND: log10 DC50 (log10 of the value in nM)
Lab note - DC50 converted to log10 from values in nM.

- COMPOUND: "N#Cc1cnc2c(cnn2-c2cc(OCC3CCOCC3)c(-n3cc([C@H]4CC[C@H](CCN5CCN(c6ccc(C7CCC(=O)NC7=O)cc6)CC5)CC4)nn3)cn2)c1 (some centres unmarked) [P-411]"
  log10 DC50: 3.00

Give log10 DC50 for C[C@H](C#N)Nc1cc(-n2ncc3cc(C#N)cnc32)ncc1-n1cc(C2CCC(CCN3C[C@H](C)N(c4ccc(C5CCC(=O)NC5=O)cc4)C[C@H]3C)CC2)nn1 (some centres unmarked) [P-206]
0.30

Give log10 DC50 for C[C@H](C#N)Nc1cc(-n2ncc3cc(C#N)cnc32)ncc1-n1cc([C@H]2CC[C@H](CCN3CCC4(C3)CN(c3ccc([C@@]5(C)CCC(=O)NC5=O)cc3)C4)CC2)nn1 [P-448]
1.51

Give log10 DC50 for C[C@H](C#N)Nc1cc(-n2ncc3cc(C#N)c(N)nc32)ncc1-n1cc([C@H]2CC[C@H](CCN3[C@H](C)CN(c4ccc([C@@]5(C)CCC(=O)NC5=O)cn4)C[C@H]3C)CC2)nn1 (single isomer, unassigned) [P-253]
1.69

Give log10 DC50 for CS(=O)(=O)N1CCC(Nc2cc(-n3ncc4cc(C#N)cnc43)ncc2-n2cc([C@H]3CC[C@H](CCN4CCN(c5ccc(C6CCC(=O)NC6=O)cc5)CC4)CC3)nn2)CC1 (some centres unmarked) [P-174]
1.15
